Could you please report measured log10(IC50) for the items listed next?
target: Amine oxidase [flavin-containing] B (Homo sapiens, UniProt P27338); test: Inhibition of human recombinant MAO-B expressed in insect cells using p-tyramine as substrate preincubated for 30 mins followed by substrate addition measured for 15 mins by resorufin dye-based fluorescence assay
Sequence (P27338 whole entry): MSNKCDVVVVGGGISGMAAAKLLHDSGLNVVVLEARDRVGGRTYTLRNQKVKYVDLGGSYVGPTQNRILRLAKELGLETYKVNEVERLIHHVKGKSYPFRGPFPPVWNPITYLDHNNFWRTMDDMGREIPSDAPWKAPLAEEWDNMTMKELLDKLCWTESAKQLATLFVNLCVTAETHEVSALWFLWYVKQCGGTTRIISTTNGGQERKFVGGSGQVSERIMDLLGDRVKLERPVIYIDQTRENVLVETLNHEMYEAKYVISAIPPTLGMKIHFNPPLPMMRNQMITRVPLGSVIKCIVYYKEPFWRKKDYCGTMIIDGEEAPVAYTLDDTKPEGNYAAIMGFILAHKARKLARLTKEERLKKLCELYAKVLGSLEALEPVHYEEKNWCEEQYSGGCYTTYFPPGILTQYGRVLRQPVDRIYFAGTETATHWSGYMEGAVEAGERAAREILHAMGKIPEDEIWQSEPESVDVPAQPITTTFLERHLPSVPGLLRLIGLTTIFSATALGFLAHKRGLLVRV
Recorded IC50 (log10, µM)

# lookup: log10(IC50) of `Cn1c(=O)[nH]c2cc(OCc3cccc(Cl)c3)ccc21` 1.54

# lookup: log10(IC50) of `O=C1Nc2ccc(OCCc3ccc(F)cc3)cc2C1=O` -0.99

# lookup: log10(IC50) of `Cn1c(=O)[nH]c2ccc(OCc3ccc(Cl)c(Cl)c3)cc21` 0.89

# lookup: log10(IC50) of `CCn1c(=O)[nH]c2ccc(OCc3ccc(C(F)(F)F)cc3)cc21` 2.26

# lookup: log10(IC50) of `Cn1c(=O)[nH]c2ccc(OCc3ccc(Cl)cc3)cc21` 1.75

# lookup: log10(IC50) of `O=C1Cc2cc(OCc3ccc(F)cc3)ccc2N1` 1.40
